- experimental-details: Apparent volume of distribution in C57BL/6J mouse at 5 mg/kg, iv measured for 24 hrs by LC-MS/MS analysis
- Format: ADME, organism-based
- stated-conditions: in vivo, read-out: Vz

chem-smiles: O=C(Nc1c2c(cc3c1CCC3)CCC2)NS(=O)(=O)c1ccc(OCCOCCOCCOCCN2C(=O)/C(=C/c3cc(Br)c(O)c(Br)c3)c3cc(I)ccc32)cc1
measurement-units: L/kg
Vd: 2.31

###

- experimental-details: AUC (0 to t) in C57BL/6J mouse at 5 mg/kg, iv measured for 24 hrs by LC-MS/MS analysis
- Type: ADME, organism-based
- stated-conditions: in vivo
measurement-label: AUC(0-t) at 24 h (ng·h/mL)

chem-smiles: O=C(Nc1c2c(cc3c1CCC3)CCC2)NS(=O)(=O)c1ccc(OCCOCCOCCOCCN2C(=O)/C(=C/c3cc(Br)c(O)c(Br)c3)c3cc(I)ccc32)cc1
measurement-units: ng·h/mL
recorded-result: 2960
